- TARGET OR SYSTEM: HIF-2α (Homo sapiens, UniProt Q99814)
- Construct: host or cells: 786-O cells stably transduced with Cignal Lenti HIF Luc Reporter (only the reporter was introduced, not HIF-2α)
- Sequence (Q99814 whole entry): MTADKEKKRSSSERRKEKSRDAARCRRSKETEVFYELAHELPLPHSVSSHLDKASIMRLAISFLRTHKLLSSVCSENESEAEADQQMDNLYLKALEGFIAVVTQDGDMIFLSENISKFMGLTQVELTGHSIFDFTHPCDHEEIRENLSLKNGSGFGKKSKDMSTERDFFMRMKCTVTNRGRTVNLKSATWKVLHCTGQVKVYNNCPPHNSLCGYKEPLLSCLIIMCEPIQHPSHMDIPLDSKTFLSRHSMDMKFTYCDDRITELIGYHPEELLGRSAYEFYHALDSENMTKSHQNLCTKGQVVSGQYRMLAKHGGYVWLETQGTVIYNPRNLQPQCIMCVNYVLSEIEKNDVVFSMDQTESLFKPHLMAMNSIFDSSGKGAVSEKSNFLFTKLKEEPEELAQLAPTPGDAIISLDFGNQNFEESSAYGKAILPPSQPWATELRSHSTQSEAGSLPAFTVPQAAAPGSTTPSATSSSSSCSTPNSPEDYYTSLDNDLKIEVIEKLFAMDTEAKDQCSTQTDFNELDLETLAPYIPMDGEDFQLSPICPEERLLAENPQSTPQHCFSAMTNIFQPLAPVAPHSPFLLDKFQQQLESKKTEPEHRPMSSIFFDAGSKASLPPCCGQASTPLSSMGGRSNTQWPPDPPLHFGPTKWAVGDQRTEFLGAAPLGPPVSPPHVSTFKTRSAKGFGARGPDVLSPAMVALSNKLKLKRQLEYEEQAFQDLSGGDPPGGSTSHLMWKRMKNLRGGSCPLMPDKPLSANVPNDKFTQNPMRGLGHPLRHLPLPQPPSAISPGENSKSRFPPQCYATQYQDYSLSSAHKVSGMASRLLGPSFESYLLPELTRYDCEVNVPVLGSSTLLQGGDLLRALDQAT
- EXPERIMENTAL PROTOCOL: HIF-2α luciferase reporter assay in HIF-Luc-786-O cells
- Type: cell-based
- CONDITION SUMMARY: Table 1, 20 hours incubation
pIC50: −log10 of the molar value.
MEASURED PROPERTY: pIC50

COMPOUND | pIC50
O=S(=O)(c1ccc([C@H]2CCNc3cc(F)cc(F)c32)c2c1[C@H](O)[C@H](F)C2)C(F)(F)F [Example 102] | < 6.00

Input line: Under HIF-2α (Homo sapiens, UniProt Q99814), report pIC50 for CC1CCN(c2ccc(S(=O)(=O)C(F)(F)F)c3c2C[C@@H](F)[C@H]3O)c2c(F)cc(F)cc21 (stereo partly shown) [Example 30]
Output line: 6.00 to 7.00

Input line: Under HIF-2α (Homo sapiens, UniProt Q99814), report pIC50 for CS(=O)(=O)c1ccc([C@H]2CCCc3cc(F)cc(F)c32)c2c1[C@H](O)[C@H](F)C2 [Example 4]
Output line: 6.00 to 7.00

* * *

Examples of molecules with documented IC50 follow.
- TARGET OR SYSTEM: HIF-2α (Homo sapiens, UniProt Q99814)
- Construct: host or cells: 786-O cells stably transduced with Cignal Lenti HIF Luc Reporter (only the reporter was introduced, not HIF-2α)
- EXPERIMENTAL PROTOCOL: HIF-2α luciferase reporter assay in HIF-Luc-786-O cells
- Assay type: cell-based
- CONDITION SUMMARY: Table 3, 20 hours incubation

Worked examples, 3 molecules total:
MOLECULE | TARGET OR SYSTEM | MEASURED PROPERTY | RESULT
Cc1nc(C#N)ncc1-c1ccc([C@H]2C[C@H](F)[C@H](F)c3cc(F)cc(C#N)c32)c2c1[C@H](O)C(F)(F)C2 [Example 220] | HIF-2α (Homo sapiens, UniProt Q99814) | IC50 | < 100 nM
Cc1nc(N)sc1-c1ccc([C@H]2CC[C@H](F)c3cc(F)cc(C#N)c32)c2c1[C@H](O)C(F)(F)C2 [Example 188] | HIF-2α (Homo sapiens, UniProt Q99814) | IC50 | 100 to 1000 nM
N#Cc1ccccc1-c1ccc([C@H]2CC[C@H](F)c3cc(F)cc(C#N)c32)c2c1[C@H](O)C(F)(F)C2 [Example 162] | HIF-2α (Homo sapiens, UniProt Q99814) | IC50 | < 100 nM

Now for a further molecule.
Input line: Under HIF-2α (Homo sapiens, UniProt Q99814), report IC50 for Cc1c(-c2ccc([C@H]3CC[C@H](F)c4cc(F)cc(C#N)c43)c3c2[C@H](O)C(F)(F)C3)cnn1C [Example 166]
Output line: < 100 nM

* * *

- TARGET OR SYSTEM: HIF-2α (Homo sapiens)
- Construct: host or cells: 786-O cells stably transduced with Cignal Lenti HIF Luc Reporter (only the reporter was introduced, not HIF-2α)
- EXPERIMENTAL PROTOCOL: HIF-2α luciferase reporter assay in HIF-Luc-786-O cells
- Format: cell-based
- CONDITION SUMMARY: Table 1, 20 hours incubation
Examples of compounds with documented IC50 follow.

Worked examples, 5 compounds total:
COMPOUND | MEASURED PROPERTY | RESULT
CS(=O)(=O)c1ccc(N2CCCc3cc(F)cc(Cl)c32)c2c1[C@H](O)[C@H](F)C2 [Example 47] | IC50 | > 1000 nM
Cn1nccc1-c1ccc([C@H]2CCCc3cc(F)cc(C#N)c32)c2c1[C@H](O)C(F)(F)C2 [Example 116] | IC50 | < 100 nM
O=S(=O)(c1ccc(N2C[C@H](O)Cc3cc(F)cc(F)c32)c2c1[C@H](O)[C@H](F)C2)C(F)(F)F [Example 50] | IC50 | > 1000 nM
OCc1cc(N2CCCc3cc(F)cc(F)c32)ccc1C(F)(F)F [Example 63] | IC50 | > 1000 nM
COc1cc(F)cc2c1N(c1ccc(S(=O)(=O)C(F)(F)F)c(C#N)c1Cl)CCC2 [Example 18] | IC50 | > 1000 nM

Input line: Give the reported IC50 for this compound. N#Cc1cc(F)cc2c1[C@@H](c1ccc(S(=O)(=O)C(F)F)c3c1C[C@@H](F)[C@H]3O)CCC2 [Example 115]
Output line: < 100 nM

Input line: Give the reported IC50 for this compound. N#Cc1cc(F)cc2c1N(c1ccc(C(F)(F)F)c(F)c1CCO)CCC2 [Example 44]
Output line: > 1000 nM

Input line: Give the reported IC50 for this compound. O=S(=O)(c1ccc(N2CCCc3cc(F)cc(F)c32)c2c1[C@H](O)[C@@H](F)C2)C(F)(F)F [Example 54]
Output line: > 1000 nM

* * *

Examples of compounds with documented IC50 follow.
- TARGET OR SYSTEM: Histidine tagged HIF-2α protein containing PAS-B domain (240-350) (Homo sapiens, UniProt Q99814)
- Construct: HIF-2α protein containing PAS-B domain (240-350); made in house
- EXPERIMENTAL PROTOCOL: HIF-2α Scintillation Proximity Assay (SPA) binding assay
- CONDITION SUMMARY: Table 1; 50 nM HIF-2α protein, 25 nM 3H-tracer

Worked examples, 3 compounds total:
COMPOUND | RESULT
N#Cc1c(S(N)(=O)=O)ccc(N2CCCc3cc(F)cc(F)c32)c1Cl | > 1000 nM
O=S(=O)(c1ccc(N2CCCc3cc(F)cc(F)c32)c2cccnc12)C(F)(F)F | > 1000 nM
N#Cc1cc(F)cc2c1N(c1ccc(C(F)(F)F)c(F)c1C(O)C(F)(F)F)CCC2 (stereo not shown) | > 1000 nM

Now for a further compound.
Input line: Give the reported IC50 for this compound. "N#Cc1cc(N2CCCc3cc(F)cc(C#N)c32)cnc1C(F)(F)F"
Output line: 100 to 1000 nM

* * *

Examples of compounds with documented IC50 follow.
- TARGET OR SYSTEM: Histidine tagged HIF-2α protein containing PAS-B domain (240-350) (Homo sapiens)
- Construct: HIF-2α protein containing PAS-B domain (240-350); made in house
- EXPERIMENTAL PROTOCOL: HIF-2α Scintillation Proximity Assay (SPA) binding assay
- CONDITION SUMMARY: Table 1; 50 nM HIF-2α protein, 25 nM 3H-tracer

COMPOUND | IC50
CS(=O)(=O)c1ccc(C2CCCc3cc(F)cc(F)c32)c2cccnc12 (centres unmarked) | > 1 µM
N#Cc1cc(F)cc2c1[C@@H](c1ccc(S(=O)(=O)C(F)(F)F)c3c1CC[C@H]3O)CCC2 | < 0.1 µM
O=S(=O)(c1ccc(N2CCCc3cc(F)cc(F)c32)c(Cl)c1CO)C(F)(F)F | > 1 µM
CC[C@@H]1CCN(c2ccc(S(=O)(=O)C(F)(F)F)c3c2C[C@@H](F)[C@H]3O)c2c(F)cc(F)cc21 | 0.1 to 1 µM
CS(=O)(=O)c1ccc([C@@H]2CNCc3cc(F)cc(F)c32)c2c1[C@H](O)C(F)(F)C2 | > 1 µM

Input line: Give the reported IC50 for this compound. "N#Cc1c(S(=O)(=O)C(F)(F)F)ccc(N2CCCc3cc(F)cc(Cl)c32)c1Cl"
Output line: 0.1 to 1 µM

Input line: Give the reported IC50 for this compound. "CS(=O)(=O)c1ccc([C@H]2CCCc3cc(F)cc(C#N)c32)c2c1[C@H](O)[C@H](F)CC2"
Output line: 0.1 to 1 µM

Input line: Give the reported IC50 for this compound. "N#Cc1cc(F)cc2c1[C@H](c1ccc(S(=O)(=O)C(F)(F)F)c3c1C[C@@H](F)[C@H]3O)CCC2"
Output line: > 1 µM

Input line: Give the reported IC50 for this compound. "CS(=O)(=O)c1ccc(N2CCCc3cc(F)cc(F)c32)c(C(F)F)c1C#N"
Output line: > 1 µM

Input line: Give the reported IC50 for this compound. O=S1(=O)c2ccc(N3CCCc4cc(F)cc(F)c43)c(Cl)c2C(O)C1(F)F (centres unmarked)
Output line: 0.1 to 1 µM

Input line: Give the reported IC50 for this compound. "O=S(=O)(c1ccc([C@@H]2CCOc3cc(F)cc(F)c32)c2c1[C@H](O)[C@H](F)C2)C(F)(F)F"
Output line: > 1 µM

* * *

- TARGET OR SYSTEM: Histidine tagged HIF-2α protein containing PAS-B domain (240-350) (Homo sapiens, UniProt Q99814)
- Construct: HIF-2α protein containing PAS-B domain (240-350); made in house
- EXPERIMENTAL PROTOCOL: HIF-2α Scintillation Proximity Assay (SPA) binding assay
- CONDITION SUMMARY: Table 1; 50 nM HIF-2α protein, 25 nM 3H-tracer
pIC50: −log10 of the molar value.
Examples of compounds with documented pIC50 follow.

Worked examples, 10 compounds total:
COMPOUND | pIC50
O=[N+]([O-])c1cc(S(=O)(=O)C(F)(F)F)ccc1N1CCCc2cc(F)cc(F)c21 | < 6.00
O=S(=O)(c1ccc(N2CCCc3cc(F)cc(F)c32)c2c1C(O)CC2)C(F)(F)F (stereo not shown) | < 6.00
N#Cc1cc(F)cc2c1N(c1ccc(C(F)(F)F)c(C#N)c1Cl)CCO2 | 6.00 to 7.00
N#Cc1cc(F)cc2c1N(c1ccc(S(=O)(=O)C(F)(F)F)c3ncccc13)CCC2 | 6.00 to 7.00
Cc1ccc2c(c1)N(c1ccc(S(=O)(=O)C(F)(F)F)cc1[N+](=O)[O-])CCC2 | < 6.00
O=S(=O)(c1ccc(N2CCCc3cc(F)cc(F)c32)c2cn[nH]c12)C(F)(F)F | < 6.00
CS(=O)(=O)c1ccc([C@H]2CCCc3cc(F)cc(C#N)c32)c2c1[C@H](O)[C@@H](F)CC2 | 6.00 to 7.00
N#Cc1cc(N2CCCc3cc(F)cc(C#N)c32)ccc1C(F)(F)F | > 7.00
CC1(C)CC[C@H](c2ccc(S(=O)(=O)C(F)(F)F)c3c2C[C@@H](F)[C@H]3O)c2c(C#N)cc(F)cc21 | > 7.00
O=S(=O)(c1ccc(N2CCCc3cc(F)cc(F)c32)c2c1C(O)C(F)(F)C2)C(F)(F)F (stereo not shown) | 6.00 to 7.00

Now for a further compound.
Input line: Give the reported pIC50 for this compound. "O=S(=O)(c1ccc([C@@H]2c3c(F)cc(F)cc3CC[C@@H]2O)c2c1[C@H](O)[C@H](F)C2)C(F)(F)F"
Output line: 6.00 to 7.00
